- TEST SYSTEM: SeviL (Mytilisepta virgata, UniProt A0A646QV53)
- Construct: This vector directs expression of full-length SeviL carrying a thrombin-cleavable hexa-histidine tag; hexa-histidine tag (thrombin-cleavable; leaves residual GSH before the native Met) (N, cleaved yes); made in house; host or cells: E. coli BL21(DE3)
- Sequence (A0A646QV53 whole entry): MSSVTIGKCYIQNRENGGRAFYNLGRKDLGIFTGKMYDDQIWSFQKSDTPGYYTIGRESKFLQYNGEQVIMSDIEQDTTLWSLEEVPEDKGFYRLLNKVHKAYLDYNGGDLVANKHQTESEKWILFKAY
- PROTOCOL SUMMARY: biochemical
- Assay type: binding
pKd: −log10 of the molar value.
ATTRIBUTE MEASURED: pKd

Q) Test system SeviL (Mytilisepta virgata, UniProt A0A646QV53); read-out pKd; what value for OC[C@H]1O[C@@H](O[C@H]2[C@H](O)[C@@H](O)C(O)O[C@@H]2CO)[C@H](O)[C@@H](O)[C@H]1O (mixture of isomers) ?
A) 1.92 to 2.10
